Where do these numbers come from? They come from ChEMBL document CHEMBL4689842.

- System: HEK-293T
- TEST NAME: Multiplex assay against HEK293T
- Type: toxicity, cell-based
- PROTOCOL CONDITIONS: human, 12 h, 10 µM, compound concentration 10 uM, replicate 2
# strict inequality: Population Apoptotic (%) < 30% yields rule met, everything else yields rule not met

COc1cc(N2CCN(C)CC2)ccc1Nc1ncc2c(n1)N(C)c1ccccc1C(=O)N2C	rule not met
O=C(Cc1ccc(-c2ccc(OCCN3CCOCC3)cc2)cn1)NCc1ccccc1	rule met
O=C(Nc1ccc(-c2ccnc(Nc3ccc(N4CCOCC4)cc3)n2)cc1)[C@@H]1CCCN1	rule met
CNC(=O)c1ccc(Nc2nc(OC3CCCC3)c3c(-c4ccc5nc(C)oc5c4)c[nH]c3n2)c(OC)c1	rule met
CCN1CCN(Cc2ccc(Nc3ncc(F)c(-c4cc(F)c5nc(C)n(C(C)C)c5c4)n3)nc2)CC1.CS(=O)(=O)O	rule not met

Exam item: A record lists CCOc1cc(C(=O)N2CCC(N3CCN(C)CC3)CC2)ccc1Nc1ncc2c(n1)N(C1CCCC1)c1ccccc1C(=O)N2C . Is its Population Apoptotic (%) below 30%?
Marked response: rule not met

Exam item: Lab note: confirm whether the reported Population Apoptotic (%) for this compound is below 30%, equality not counting. compound: CCc1cccc(CC)c1NC(=O)c1nn(C)c2c1CCc1cnc(Nc3ccc(N4CCN(C)CC4)cc3OC)nc1-2
Marked response: rule met

Exam item: Here's an entry: CCn1cc(-c2ccnc3[nH]c(-c4cccc(CN(C)C)c4)cc23)c(-c2ccc(NC(=O)N(C)C)cc2)n1 . Is its Population Apoptotic (%) below 30%?
Marked response: rule met

Exam item: Strictly below 30% in Population Apoptotic (%)? COC(=N)c1nc2ccc3ncnc(Nc4ccc(OC)cc4F)c3c2s1
Marked response: rule met

Exam item: For NC(=O)c1cccc(-c2cc(Nc3ccc(OC(F)(F)F)cc3)ncn2)c1 , is the recorded Population Apoptotic (%) below the cut-off of 30%?
Marked response: rule met

Exam item: Given Cn1nc(C(F)(F)F)cc1-c1cnc(N2CCc3cc(S(=O)(=O)Nc4c(F)cc(Cl)cc4F)cc(N4CCCC4=O)c32)nc1 , is recorded Population Apoptotic (%) strictly lower than 30%?
Marked response: rule met

Exam item: Given CCOC(=O)c1c(C)[nH]c2ccc3c(c12)CN1CCc2cc(OC)ccc2C1O3 (configuration not stated) , is recorded Population Apoptotic (%) strictly lower than 30%?
Marked response: rule not met

Exam item: State whether 30% exceeds Population Apoptotic (%) recorded for O=C(Nc1ccc(Cl)cc1)Nc1cccc(-c2cccc(N3CCCC3)n2)c1 .
Marked response: rule not met

Exam item: Consider the compound CCN1CCN(c2ccc(Nc3cc(N(C)C(=O)Nc4c(Cl)c(OC)cc(OC)c4Cl)ncn3)cc2)CC1 . Is its Population Apoptotic (%) strictly less than 30%?
Marked response: rule met

Exam item: Quick check: does Cc1ccc(C(=O)Nc2cccc(C(F)(F)F)c2)cc1Nc1nc(-c2cccnc2)nc2c1cnn2C have Population Apoptotic (%) under 30%?
Marked response: rule not met

Exam item: For this compound, is Population Apoptotic (%) lower than 30%? Cc1cc(C)c(S(=O)(=O)N(Cc2ccc(-c3cccc(S(C)(=O)=O)c3)cc2)Cc2ccc(C(F)(F)F)o2)c(C)c1
Marked response: rule met

Exam item: Criterion: Population Apoptotic (%) strictly below 30%. Is it met by O=C1N/C(=N/c2ccccc2F)S/C1=C\c1ccc(C(=O)O)cc1 ?
Marked response: rule met

Exam item: Find out if reported Population Apoptotic (%) for COCC(=O)NC/C=C/c1ccc2ncnc(Nc3ccc(Oc4ccc(C)nc4)c(C)c3)c2c1 is less than 30%
Marked response: rule not met
